assay-text: amyloid nucleation score (Sup35N fusion, yeast selection) (log enrichment); library NNK1; higher = more nucleation; inactive = no reads after selection;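 further: zero at mode of non-aggregating sequences after 7 days selection at 30°C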
readout-type: amyloid nucleation score
Returns: the value as a bare number; no unit string appended.

[
  {
    "substance": "DFGFLF",
    "value": 0.851
  },
  {
    "substance": "TDCHALRMWIFAGFWWHNFS",
    "value": -1.04
  }
]

Let us move to another entry and its amyloid nucleation score.
# substance NDVRYLLDMDLLASSADYFM ; its amyloid nucleation score = -0.732

---

assay-text: amyloid nucleation score (Sup35N fusion, yeast selection) (log enrichment); library NNK2; higher = more nucleation; inactive = no reads after selection
readout-type: amyloid nucleation score
Returns: the value as a bare number; no unit string appended.

[
  {
    "record-sequence": "KRNDCLFGRVALCGMFRLSA",
    "amyloid nucleation score": 0.198
  },
  {
    "record-sequence": "SSFSHLSNAIGMPFICNCEP",
    "amyloid nucleation score": -0.385
  },
  {
    "record-sequence": "PSSGPPNESAMSPITYSGEG",
    "amyloid nucleation score": -0.684
  }
]

# sequence VKCKRCSASSFAIYVEYCCT ; its amyloid nucleation score = 0.138

---

assay-text: amyloid nucleation score (Sup35N fusion, yeast selection) (log enrichment); library NNK3; higher = more nucleation; inactive = no reads after selection
readout-type: amyloid nucleation score

[
  {
    "substance": "RGANYVFGWKITVNAFEGEC",
    "amyloid nucleation score": 0.838
  },
  {
    "substance": "GERWVQKIQ",
    "amyloid nucleation score": "inactive"
  },
  {
    "substance": "VIRSNYWHTLNWLQQNKSRG",
    "amyloid nucleation score": "inactive"
  },
  {
    "substance": "NRQMLYILEINSIIFIQSFC",
    "amyloid nucleation score": 0.903
  },
  {
    "substance": "LLIFMFCLAFVFFFMAKDGN",
    "amyloid nucleation score": "inactive"
  },
  {
    "substance": "PYSTFLLCQGLTNYMYSSMS",
    "amyloid nucleation score": "inactive"
  },
  {
    "substance": "YLFHSEGHWRDPHSLPSYLT",
    "amyloid nucleation score": "inactive"
  },
  {
    "substance": "DEMLHGCPDRVPNLGWY",
    "amyloid nucleation score": "inactive"
  }
]

Let us move to another entry and its amyloid nucleation score.
# substance FNFNLKFKTFGKMYFTGPES ; its amyloid nucleation score = 0.628

---

assay-text: amyloid nucleation score (Sup35N fusion, yeast selection) (log enrichment); library NNK3; higher = more nucleation; inactive = no reads after selection
readout-type: amyloid nucleation score

[
  {
    "substance": "NRIFIGQVFRIIGPWLGMYH",
    "amyloid nucleation score": "inactive"
  },
  {
    "substance": "AFDYLVV",
    "amyloid nucleation score": "inactive"
  },
  {
    "substance": "GAGPGLITMSNSN",
    "amyloid nucleation score": "inactive"
  },
  {
    "substance": "ISCALHYDSVRKRYVVSGQL",
    "amyloid nucleation score": "inactive"
  },
  {
    "substance": "FLYDVFPSPGLMMVLWFGLC",
    "amyloid nucleation score": "inactive"
  }
]

# substance EPESTRMGLSTTILPVFRCL ; its amyloid nucleation score = -0.158

# substance KGDCQWVVPYVIHSNHVRAG ; its amyloid nucleation score = inactive

# substance LGLMLDILRKQDC ; its amyloid nucleation score = inactive

# substance YRWQLRKKALFFFGKFSVHY ; its amyloid nucleation score = inactive

# substance YHWSGRLL ; its amyloid nucleation score = inactive

# substance LPSYLESYYCVRVISGFYLS ; its amyloid nucleation score = inactive

# substance SDFPRMNWGFETKCDYSTVR ; its amyloid nucleation score = inactive

# substance RMGWSTGILCRVDTLFITML ; its amyloid nucleation score = inactive

# substance MIRWTWNRKHTII ; its amyloid nucleation score = inactive

# substance KQVNQSRLMISGGNCRGRAN ; its amyloid nucleation score = inactive

# substance CSTISVTLALV ; its amyloid nucleation score = inactive

# substance TLSELLR ; its amyloid nucleation score = inactive

# substance NFPGLTASMIKCGGNQCYVG ; its amyloid nucleation score = inactive

# substance HVGLRAKLTFLDRVYLSILS ; its amyloid nucleation score = inactive

---

assay-text: amyloid nucleation score (Sup35N fusion, yeast selection) (log enrichment); library NNK2; higher = more nucleation; inactive = no reads after selection
readout-type: amyloid nucleation score
Returns: the value as a bare number; no unit string appended.

The following sequences have reported results that may help.
[
  {
    "record-sequence": "SRYKWKTDVHTKWTCHF",
    "amyloid nucleation score": 1.73
  },
  {
    "record-sequence": "PSYMFITVLYLQTEFGFDDT",
    "amyloid nucleation score": 3.82
  },
  {
    "record-sequence": "IPEVESIGMGWGWREISGEC",
    "amyloid nucleation score": 1.42
  },
  {
    "record-sequence": "IMFICTGRSLTHTD",
    "amyloid nucleation score": -0.642
  }
]

Let us move to another entry and its amyloid nucleation score.
# sequence CVVQHSRSFVRPLLSTLQAC ; its amyloid nucleation score = 0.453

---

assay-text: amyloid nucleation score (Sup35N fusion, yeast selection) (log enrichment); library NNK1; higher = more nucleation; inactive = no reads after selection
Decide using amyloid nucleation score: a value greater than or equal to -0.06 is met, a smaller one is not met.

See these solved cases before continuing.
[
  {
    "record-sequence": "SSWSFHARWRVRAISCACN",
    "assigned-category": "not met"
  },
  {
    "record-sequence": "NTLKNCCLYIAVRCNAP",
    "assigned-category": "not met"
  },
  {
    "record-sequence": "PQLTRSGQ",
    "assigned-category": "not met"
  },
  {
    "record-sequence": "VMHYYTSVYDVNYVRYSPPW",
    "assigned-category": "met"
  },
  {
    "record-sequence": "SEYMLRSNIVFPRWIS",
    "assigned-category": "met"
  }
]

I'd appreciate it if you could say whether KNSIYSCVTRTFSPMVLRYC has amyloid nucleation score at least equal to -0.06.
met

I'd appreciate it if you could say whether GFVEYYRVLTYDKM has amyloid nucleation score at least equal to -0.06.
met

I'd appreciate it if you could say whether HAAYTEVFILLLNDNILPHL has amyloid nucleation score at least equal to -0.06.
not met

I'd appreciate it if you could say whether DCRFNRGGFNNVR has amyloid nucleation score at least equal to -0.06.
met

I'd appreciate it if you could say whether RYARLMYASACCSSC has amyloid nucleation score at least equal to -0.06.
not met

I'd appreciate it if you could say whether LRYCNMHHRHDSYGLSSYSY has amyloid nucleation score at least equal to -0.06.
met

I'd appreciate it if you could say whether FPGSRDPGVNRSWSYNSIDT has amyloid nucleation score at least equal to -0.06.
met

I'd appreciate it if you could say whether RARDIKWGCLFVCLTCMSTG has amyloid nucleation score at least equal to -0.06.
met

I'd appreciate it if you could say whether VWFCLCLYM has amyloid nucleation score at least equal to -0.06.
met

I'd appreciate it if you could say whether HVLWGIVLVVIFFW has amyloid nucleation score at least equal to -0.06.
not met

I'd appreciate it if you could say whether ILRNGRTYGAEVLQQLWNVL has amyloid nucleation score at least equal to -0.06.
not met

I'd appreciate it if you could say whether TQRFFIVRMPSVCNNYYHLA has amyloid nucleation score at least equal to -0.06.
met

I'd appreciate it if you could say whether VLTRMDKFGARQTSVTQEAG has amyloid nucleation score at least equal to -0.06.
met

I'd appreciate it if you could say whether GCFRGPTGLCG has amyloid nucleation score at least equal to -0.06.
not met

I'd appreciate it if you could say whether TIINLGILLYYVGFFSIDPG has amyloid nucleation score at least equal to -0.06.
met

---

assay-text: amyloid nucleation score (Sup35N fusion, yeast selection) (log enrichment); library NNK1; higher = more nucleation; inactive = no reads after selection
Decide using amyloid nucleation score: a value greater than or equal to 0.7 is Condition met, a smaller one is Condition not met.

[
  {
    "record-sequence": "ILTMVEILKTIRGSA",
    "assigned-category": "Condition not met"
  },
  {
    "record-sequence": "VLGISLSERNLKGIV",
    "assigned-category": "Condition not met"
  },
  {
    "record-sequence": "GSCLISRT",
    "assigned-category": "Condition met"
  },
  {
    "record-sequence": "YALGVAFSQNSYDT",
    "assigned-category": "Condition not met"
  }
]

I'd appreciate it if you could say whether RKSVFNTLLFVE has amyloid nucleation score at least equal to 0.7.
Condition not met
